All figures here come from paper doi:10.1101/2023.10.03.560691.

target: Phage λ Orf63, 6xHis-Flag affinity tagged (phage λ); assay: BLI
Ends that are not written are not given here.
result type: Kd

Please give the documented Kd of GGLVPRGSGDTKELILAIARKVKEMIKNS (designed binder, also: fused to 6xHis-tagged ubiquitin) [6xHis-tagged ubiquitin fusion protein with the designed Orf63 binding peptide]
> 20 µM
